Biological target: Bifunctional epoxide hydrolase 2 (Homo sapiens)
Sequence (P34913 whole entry): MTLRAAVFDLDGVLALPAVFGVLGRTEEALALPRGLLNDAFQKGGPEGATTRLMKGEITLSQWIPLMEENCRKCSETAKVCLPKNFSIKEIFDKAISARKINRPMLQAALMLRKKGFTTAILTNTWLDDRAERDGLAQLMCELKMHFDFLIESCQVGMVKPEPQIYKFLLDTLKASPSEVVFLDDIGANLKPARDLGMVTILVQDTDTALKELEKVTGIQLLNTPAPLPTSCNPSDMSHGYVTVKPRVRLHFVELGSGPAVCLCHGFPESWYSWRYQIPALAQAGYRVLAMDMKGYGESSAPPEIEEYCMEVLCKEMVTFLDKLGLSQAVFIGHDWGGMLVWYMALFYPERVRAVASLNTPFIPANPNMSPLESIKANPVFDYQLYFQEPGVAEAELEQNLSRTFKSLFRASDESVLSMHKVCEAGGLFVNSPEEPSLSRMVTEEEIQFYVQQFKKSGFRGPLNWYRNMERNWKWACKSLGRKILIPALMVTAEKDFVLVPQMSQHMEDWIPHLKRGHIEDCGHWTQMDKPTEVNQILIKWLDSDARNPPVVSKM
Assay: Inhibition of soluble epoxide hydrolase (unknown origin) using PHOME as substrate measured for 1 hr by fluorescence assay
outcome measure: pIC50
# pIC50 is unitless: minus log10 of the molar concentration; print number only

compound	pIC50
C[C@@H]1CC(=O)[C@H](O)[C@]2(O)[C@H]1[C@@]1(C)CC[C@@]34C[C@@]35CC[C@H](O[C@@H]3OC[C@@H](O)[C@H](O)[C@H]3O)C(C)(C)[C@@H]5CC=C4[C@]1(C)[C@H]2O	5.07
C[C@@H]1C[C@H]2O[C@]3(O[C@H]2C(C)(C)O)[C@H]1[C@@]1(C)[C@H](O)C[C@@]24C[C@@]25CC[C@H](O[C@@H]2OC[C@@H](O)[C@H](O)[C@H]2O)C(C)(C)[C@@H]5CC=C4[C@]1(C)[C@H]3O	4.73
CC(=O)O[C@H]([C@H]1C[C@@H](C)[C@H]2[C@@](O)(O1)[C@H](O)[C@@]1(C)[C@@H]3CC[C@H]4C(C)(C)[C@@H](O[C@@H]5OC[C@@H](O)[C@H](O)[C@H]5O)CC[C@@]45C[C@@]35CC[C@]21C)C(C)(C)O	6.40
CC(=O)O[C@H](C[C@@H](C)[C@H]1C(=O)[C@H](O)[C@@]2(C)C3=CC[C@H]4C(C)(C)[C@@H](O[C@@H]5OC[C@@H](O)[C@H](O)[C@H]5O)CC[C@@]45C[C@@]35CC[C@]12C)[C@@H](O)C(C)(C)O	5.28
CC(=O)O[C@H]1[C@H](O[C@H]2CC[C@]34C[C@]35CC[C@]3(C)[C@H]6[C@H](C)C[C@H]7O[C@@]6(O[C@H]7C(C)(C)O)[C@H](O)[C@@]3(C)C5=CC[C@H]4C2(C)C)OC[C@@H](O)[C@@H]1O	4.22

Query: Need pIC50, item "CC(=O)OC(C)(C)[C@H]1O[C@@]23O[C@@H]1C[C@@H](C)[C@@H]2[C@@]1(C)CC[C@@]24C[C@@]25CC[C@H](O[C@@H]2OC[C@@H](O)[C@H](O)[C@H]2O)C(C)(C)[C@@H]5CC=C4[C@]1(C)[C@H]3O"
Result: 4.62
